# studySystem: NS3 (Hepatitis C virus)
# Sequence (A3EZJ3 whole entry): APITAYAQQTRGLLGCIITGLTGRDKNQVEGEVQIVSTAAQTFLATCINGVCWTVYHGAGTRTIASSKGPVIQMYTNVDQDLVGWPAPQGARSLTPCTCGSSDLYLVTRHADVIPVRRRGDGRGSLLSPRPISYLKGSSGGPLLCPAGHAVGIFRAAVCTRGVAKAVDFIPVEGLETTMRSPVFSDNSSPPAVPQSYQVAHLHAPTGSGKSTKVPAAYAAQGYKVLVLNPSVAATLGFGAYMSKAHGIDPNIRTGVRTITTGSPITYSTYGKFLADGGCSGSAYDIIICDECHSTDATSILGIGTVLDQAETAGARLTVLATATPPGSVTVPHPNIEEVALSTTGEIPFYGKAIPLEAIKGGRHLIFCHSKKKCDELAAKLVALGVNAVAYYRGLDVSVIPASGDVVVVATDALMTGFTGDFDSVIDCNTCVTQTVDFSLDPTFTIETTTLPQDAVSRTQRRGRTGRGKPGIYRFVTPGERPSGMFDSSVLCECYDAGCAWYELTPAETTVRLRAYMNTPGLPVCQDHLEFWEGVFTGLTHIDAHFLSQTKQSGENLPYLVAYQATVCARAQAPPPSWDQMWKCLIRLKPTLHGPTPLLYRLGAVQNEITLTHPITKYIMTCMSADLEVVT
# testProtocol: Inhibition against hepatitis C virus protease NS3 activity
# Design: species or system Hepacivirus hominis
metric: IC50 (nM)

[[record]]
substance = "Ac-DEVVPC-OH"
unitname = "nM"
observed = 2500


###

The next entries give measured IC50 for NS3 (Hepatitis C virus, UniProt A3EZJ3).
*1 amine or outer side, *2 acyl side, *3 side chain or, on linkers, in order; H or OH if unused. Where a SMILES comes first, the peptide text is derived from it. [ ]: non-standard residue; d: D form. The star is where a group is joined. Abu(ψCOCO) = CC[C@H](N[*:1])C(=O)C(=O)[*:2]; Boc = CC(C)(C)OC(=O)*; OtBu = CC(C)(C)O*; NHAllyl = C=CCN*
metric: IC50 (nM)

[[record]]
compound = "C=CCC(NC(=O)[C@H]1CCCN1C(=O)[C@@H](NC(=O)[C@@H](NC(=O)[C@H](CCC(=O)OC(C)(C)C)NC(=O)[C@H](CC(=O)OC(C)(C)C)NC(=O)OC(C)(C)C)C(C)C)C(C)C)C(=O)C(=O)OC (stereo not given in full)"
metric = "IC50"
operatorsymbol = ">"
observed = 30000

[[record]]
compound = "C=CCNC(=O)C(=O)[C@H](CC)NC(=O)[C@@H]1CCCN1C(=O)[C@@H](NC(=O)[C@@H](NC(=O)[C@H](CCC(=O)OC(C)(C)C)NC(=O)[C@H](CC(=O)OC(C)(C)C)NC(=O)OC(C)(C)C)C(C)C)C(C)C (Boc-D(OtBu)E(OtBu)VVP[Abu(ψCOCO)]-NHAllyl)"
metric = "IC50"
operatorsymbol = "="
observed = 840

[[record]]
compound = "C=CCNC(=O)C(=O)[C@H](CC)NC(=O)[C@@H]1CCCN1C(=O)[C@@H](NC(=O)[C@@H](NC(=O)[C@H](CCC(=O)O)NC(=O)[C@@H](N)CC(=O)O)C(C)C)C(C)C (H-DEVVP[Abu(ψCOCO)]-NHAllyl)"
metric = "IC50"
operatorsymbol = "="
observed = 420

[[record]]
compound = "C=CCC(NC(=O)[C@H]1CCCN1C(=O)[C@@H](NC(=O)[C@@H](NC(=O)[C@H](CCC(=O)O)NC(=O)[C@@H](N)CC(=O)O)C(C)C)C(C)C)C(=O)C(=O)C1CC=CCC1 (stereo not given in full)"
metric = "IC50"
operatorsymbol = "="
observed = 4230

[[record]]
compound = "C=CCNC(=O)C(=O)C(CC=C)NC(=O)[C@H]1CCCN1C(=O)[C@@H](NC(=O)[C@@H](NC(=O)[C@H](CCC(=O)OC(C)(C)C)NC(=O)[C@H](CC(=O)OC(C)(C)C)NC(=O)OC(C)(C)C)C(C)C)C(C)C (stereo not given in full)"
metric = "IC50"
operatorsymbol = "="
observed = 570

